B1: OR4K15 (parent)
chain: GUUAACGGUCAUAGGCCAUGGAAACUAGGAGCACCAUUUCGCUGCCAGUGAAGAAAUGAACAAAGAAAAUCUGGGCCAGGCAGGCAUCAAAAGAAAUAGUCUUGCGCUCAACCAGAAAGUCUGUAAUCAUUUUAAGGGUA

# Variants of: B1
# METHOD: self-cleavage, relative activity (ratio to wild type); higher = more cleavage; in vitro, sequencing; the parent is a self-cleaving ribozyme
Each record here notes measured self-cleavage.
ASSAY READOUT: self-cleavage

INSERT INTO results (sequence_chain, reported_result) VALUES
  ('GUUAACGGUCAUAGGCCAUGGAAACUAGGAGCACCAUUUCGCUGCCAGUGAAGAAAUGAACAAAGAAAAUCUGGGCCGGGCAGGCAUCAAAAGAAAAAGUCUUGCGCUCAACCAGAAAGUCUGUAAUCAUUUUAAGGGUA', 0.27),
  ('GUUAACGGUCAUAGGCCAUGGAAACUAGGAGCACCAUUUCGCUGCCAGUGAAGAAAAGAACAAAGAAAAUCUGGGCCAGGCAGGCAUCAAAAGAAAUAGUCUUGCGCUCAACCAGAAAGUCUGUAAUCAUCUUAAGGGUA', 1.07),
  ('GUUAACGGUCAUAGGCCAUGGAAACUAGGAGCACCAUUUCGCUGCCAGUGAAGAAAUGAACAAAGAAAAUCUGGGCCAGGCAGGCAUCAAAAGAAAUAGUCUUGCGCUCAACCAGAAACUCUGUAAUCAUUUUAAGGGUA', 1.04),
  ('GUUAACGGUCAUAGGCCAUGGAAACUAGGAGCACCAUUUCGCUGCCAGUGAAGAAAUGAACAGAGAAAAUCUGGGCCAGGCAGGCAUCAAGAGAAAUAGUCUUGCGCUCAACCAGAAAGUCUGUAAUCAUUUUAAGGGUA', 0.98),
  ('GUUAACGGUCAUAGGCCAUGGAAACUAGGAGCACCAUUUCGCUGGCAGUGAAGAGAUGAACAAAGAAAAUCUGGGCCAGGCAGGCAUCAAAAGAAAUAGUCUUGCGCUCAACCAGAAAGUCUGUAAUCAUUUUAAGGGUA', 1.73),
  ('GUUAACGGUCAUAGGCCAUGGAAACUAGGAGCACCAUUUCGCUGCCAGUGAAGAAGUGAACAAAGAAAAUCUGGGCCAGGCAGGCAUCAAAAGAAAUAGUCUUGCGCUCAACCAGAAAAUCUGUAAUCAUUUUAAGGGUA', 2.09),
  ('GUUAACGGUCAUAGGCCAUGGAAACUAGGAGCACCAUUUCGCUGCCAGUGAGGAAAUGAACAAAGAAAAUCUGGGCCAGGCAGGCAUCAAAAGAAAUGGUCUUGCGCUCAACCAGAAAGUCUGUAAUCAUUUUAAGGGUA', 0.8),
  ('GUUAACGGUCAUAGGCCAUGGAAACUAGGAGCACCAUUUCGCUGCCAGUGAAGAAAUGAACAAAGAAAAUCUGGGCCAGGCAGGCAUCAAAAGAAUUAGUCUUGCGCUCAACCAGAAAGCCUGUAAUCAUUUUAAGGGUA', 1.17),
  ('GUUAACGGUCAUAGGCCAUGGAAACUAGGAGCACCAUUUCGCUGCCAGUGAAGAAAUGAACAAAGAAAAUCUAGGCCAGGCAGGCAUCAAAAGAAAUAGUCUUGCGCUCAACCAGUAAGUCUGUAAUCAUUUUAAGGGUA', 0.03),
  ('GUUAACGGUCAUAGGCCAUGGUAACUAGGAGCACCAUUUCGCUGCCAGUGAAGAAAUGAACAAAGAAAAUCUGGGCCAGGCAGGCAUCAAAAGAAAUAGUCUUGCGCUCAACCAGAAAGCCUGUAAUCAUUUUAAGGGUA', 0.48),
  ('GUUAACGGUCAUGGGCCAUGGAAACUAGGAGCACCAUUUCGCUGCCAGUGAAGAAAUGAACAAAGAAAAUCUGGGCCAGGCAGGCAUCAAAAGAAAUAGUCCUGCGCUCAACCAGAAAGUCUGUAAUCAUUUUAAGGGUA', 1.18),
  ('GUUAACGGUCAUAGGCCCUGGAGACUAGGAGCACCAUUUCGCUGCCAGUGAAGAAAUGAACAAAGAAAAUCUGGGCCAGGCAGGCAUCAAAAGAAAUAGUCUUGCGCUCAACCAGAAAGUCUGUAAUCAUUUUAAGGGUA', 0.81),
  ('GUUAACGGUCAUAGGCCAUGGAAACUAGGACCACCAUUUCGCUGCCAGUGAAGAAAUGAACAAAGAAAAUCUGGGCCAGGCAGGCAUCAAAAGAAAUAGUCUUGCGCUCAACCAGAAAGUCUGUAAUCAUUUUAAGGGCA', 1.53),
  ('GUUAACGGUCAUAGGCCAUGGAAACUAGGAGCACCAUUUCGCUGCCAGUGAAGAAAUGAACAAAGAAAAUCAGGGCCAGGCAGGCACCAAAAGAAAUAGUCUUGCGCUCAACCAGAAAGUCUGUAAUCAUUUUAAGGGUA', 0.19),
  ('GUUAACGGUCAUAGGCCAUGGAAACUAGGAGCACCAUUCCGCUGCCAGUGAAGAAAUGAACAAAGAAAAUCUGGGACAGGCAGGCAUCAAAAGAAAUAGUCUUGCGCUCAACCAGAAAGUCUGUAAUCAUUUUAAGGGUA', 0.13),
  ('GUUAACGGUCAUAGGCCAUGGAAACUAGGAGCACCAUUUCGCUGCCAGUGAAGAAAUGAACAAGGAAAAUCUGGGCCAGGCAGGCAUCAAAAGAAAUAGUCUUGCGCUCAACCAGAAAGUCUGUAAUCAUCUUAAGGGUA', 1.2),
  ('GUUAACGGUCAUAGGCCAUGGAAACUAGGAGCACCAUUUCGCUGCCAGUGAAGAAAUGAACAAAGAAAAACUGGGCCAGGCUGGCAUCAAAAGAAAUAGUCUUGCGCUCAACCAGAAAGUCUGUAAUCAUUUUAAGGGUA', 0.24),
  ('GUUAACGGUCAUAGGCCAUGGAAACUAGGAGCACCAUUUCGCUGCCAGUGAAGAAAUGAACAAAGAACAUCUGGGCCAGGCAGGCAUCAGAAGAAAUAGUCUUGCGCUCAACCAGAAAGUCUGUAAUCAUUUUAAGGGUA', 1.24),
  ('GCUAACGGUCAUAGGCCAUGGAAACUAGGAGCACCAUUUCGCUGCCAGUGAAGAAAUGAACAAAGAAAGUCUGGGCCAGGCAGGCAUCAAAAGAAAUAGUCUUGCGCUCAACCAGAAAGUCUGUAAUCAUUUUAAGGGUA', 0.91);
